In this section, each of the compounds is paired with its reported pIC50.
- subject-of-test: Avi-KRAS G12V (1-169) GppNHp/RAF1 RBD-3xFLAG (52-151) (Homo sapiens, UniProt P01116, G12V)
- Construct: Avi-KRAS G12V (1-169)
- Sequence (P01116 1-169 isoform P01116-2 G12V): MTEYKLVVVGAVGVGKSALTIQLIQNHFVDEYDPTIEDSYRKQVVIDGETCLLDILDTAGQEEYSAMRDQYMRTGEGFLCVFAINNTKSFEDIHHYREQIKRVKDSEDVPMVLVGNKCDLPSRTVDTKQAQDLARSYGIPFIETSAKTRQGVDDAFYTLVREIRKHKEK
- method: Raf1-KRAS G12V-GppNHP disruption HTRF assay (Biological Example 1)
- Assay type: binding
- test-parameters: KRAS G12V-GppNHp/RAF1 RBD HTRF
- Procedure: A protein:protein interaction (PPI) Homogeneous Time Resolved Fluorescence (HTRF) assay was used to determine the effectiveness of compounds of the present disclosure in disrupting KRAS protein and effector RAF1 binding. The assay buffer included: 50 mM Tris pH 7.5, 100 mM NaCl, 5 mM MgCl2, 0.1% BSA, 0.01% Tween, and 10% DMSO. The bead buffer included: 50 mM Tris pH 7.5, and 0.01% Tween 20. […] Data was reported as percentage of activity, with DMSO as 100%. Data was plotted and analyzed using Prism 8.
pIC50: −log10 of the molar value.

- compound: "CC(=O)N1CCN(c2nc(OC[C@@]34CCCN3C[C@H](F)C4)nc3c(F)c(-c4ccc(F)c5sc(N)c(C#N)c45)c(C(F)(F)F)cc23)C2CC21 (stereo partly drawn)"
  pIC50: "5.00 to 6.00"
- compound: "N#Cc1c(N)sc2c(F)ccc(-c3c(C(F)(F)F)cc4c(N5CCn6nc(C(=O)N7CCC(O)C7)cc6C5)nc(OCC56CCCN5CC(F)C6)nc4c3F)c12 (stereo not drawn)"
  pIC50: "6.00 to 7.00"
- compound: "CCN(c1nc(OC[C@@]23CCCN2C[C@H](F)C3)nc2c(F)c(-c3ccc(F)c4sc(N)c(C#N)c34)c(C(F)(F)F)cc12)[C@H]1CC(=O)N(CC(F)F)C1"
  pIC50: "6.00 to 7.00"
- compound: "N#Cc1c(N)sc2c(F)ccc(-c3c(C(F)(F)F)cc4c(N5C6COCC5CC(O)C6)nc(OC[C@@]56CCCN5C[C@H](F)C6)nc4c3F)c12 (stereo partly drawn)"
  pIC50: "5.00 to 6.00"
- compound: "CCN1C[C@@H](N(CC)c2nc(OC[C@@]34CCCN3C[C@H](F)C4)nc3c(F)c(-c4ccc(F)c5sc(N)c(C#N)c45)c(C(F)(F)F)cc23)CC1=O"
  pIC50: "> 7.00"
- compound: "N#Cc1c(N)sc2c(F)ccc(-c3c(C(F)(F)F)cc4c(N5CCCCCC5)nc(OC[C@@]56CCCN5C[C@H](F)C6)nc4c3F)c12"
  pIC50: "6.00 to 7.00"

----------
- subject-of-test: Avi-KRAS G12D (1-169) GppNHp/RAF1 RBD-3xFLAG (52-151) (Homo sapiens, UniProt P01116, G12D)
- Construct: Avi-KRAS G12D (1-169)
- Sequence (P01116 1-169 isoform P01116-2 G12D): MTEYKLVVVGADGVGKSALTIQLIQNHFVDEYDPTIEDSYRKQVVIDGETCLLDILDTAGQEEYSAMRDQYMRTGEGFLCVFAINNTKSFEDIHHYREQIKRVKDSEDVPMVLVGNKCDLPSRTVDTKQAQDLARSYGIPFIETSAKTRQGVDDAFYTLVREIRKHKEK
- method: Raf1-KRAS G12D-GppNHP disruption HTRF assay (Biological Example 1)
- Type: binding
- test-parameters: KRAS G12D, GppNHp-loaded; Table 11
pIC50: −log10 of the molar value.
In this section, each of the compounds is paired with its reported pIC50.
endpoint-name: pIC50

- compound: "CCN(c1nc(OC[C@@]23CCCN2C[C@H](F)C3)nc2c(F)c(-c3ccc(F)c4sc(N)c(C#N)c34)c(C(F)(F)F)cc12)[C@@H]1CCN(C(C)=O)[C@@H]1COC"
  endpoint-name: "pIC50"
  reported-result: "6.00 to 7.00"
- compound: "CN(c1nc(OCC23CCCN2CCC3)nc2c(F)c(-c3ccc(F)c4sc(N)nc34)c(C(F)(F)F)cc12)[C@H]1C[C@H](CO)C1 (atropisomer, axis not shown)"
  endpoint-name: "pIC50"
  reported-result: "5.00 to 6.00"
- compound: "CN(c1nc(OC[C@@]23CCCN2C[C@H](F)C3)nc2c(F)c(-c3ccc(F)c4sc(N)c(C#N)c34)c(C(F)(F)F)cc12)[C@H]1CCOC1"
  endpoint-name: "pIC50"
  reported-result: "6.00 to 7.00"
- compound: "N#CC[C@@H]1CN(c2nc(OC[C@@]34CCCN3C[C@H](F)C4)nc3c(F)c(-c4ccc(F)c5sc(N)c(C#N)c45)c(C(F)(F)F)cc23)CCO1"
  endpoint-name: "pIC50"
  reported-result: "6.00 to 7.00"
- compound: "CN(c1nc(OC[C@@]23CCCN2C[C@H](F)C3)nc2c(F)c(-c3ccc(F)c4scc(C#N)c34)c(C(F)(F)F)cc12)[C@@H]1CCN(C(=O)CO)C1"
  endpoint-name: "pIC50"
  reported-result: "< 5.00"
- compound: "Nc1nc2c(-c3c(C(F)(F)F)cc4c(N5CCCC(CO)C5)nc(OCC56CCCN5CCC6)nc4c3F)ccc(F)c2s1 (centres unmarked)"
  endpoint-name: "pIC50"
  reported-result: "5.00 to 6.00"
- compound: "N#Cc1c(N)sc2c(F)ccc(-c3c(C(F)(F)F)cc4c(N(CCO)CCO)nc(OC[C@@]56CCCN5C[C@H](F)C6)nc4c3F)c12"
  endpoint-name: "pIC50"
  reported-result: "> 7.00"
- compound: "N#Cc1c(N)sc2c(F)ccc(-c3c(C(F)(F)F)cc4c(N5CC[C@@H]5CF)nc(OC[C@@]56CCCN5C[C@H](F)C6)nc4c3F)c12"
  endpoint-name: "pIC50"
  reported-result: "6.00 to 7.00"
- compound: "CCN(c1nc(OC[C@@]23CCCN2C[C@H](F)C3)nc2c(F)c(-c3ccc(F)c4sc(N)c(C#N)c34)c(C(F)(F)F)cc12)[C@H]1C[C@@H](O)C1"
  endpoint-name: "pIC50"
  reported-result: "> 7.00"
- compound: "CN1CCC[C@H]1COc1nc(N(C)[C@H]2C[C@@H](O)C2)c2cc(C(F)(F)F)c(-c3ccc(F)c4sc(N)c(C#N)c34)c(F)c2n1"
  endpoint-name: "pIC50"
  reported-result: "6.00 to 7.00"
- compound: "N#Cc1c(N)sc2c(F)ccc(-c3c(C(F)(F)F)cc4c(N5CC[C@@H](CO)C5)nc(OC[C@@]56CCCN5C[C@H](F)C6)nc4c3F)c12"
  endpoint-name: "pIC50"
  reported-result: "6.00 to 7.00"

----------
- subject-of-test: Avi-KRAS G12V (1-169) GppNHp/RAF1 RBD-3xFLAG (52-151) (Homo sapiens, UniProt P01116, G12V)
- Construct: Avi-KRAS G12V (1-169)
- method: Raf1-KRAS G12V-GppNHP disruption HTRF assay (Biological Example 1)
- Type: binding
- test-parameters: KRAS G12V, GppNHp-loaded; class symbols
pIC50: −log10 of the molar value.
In this section, each of the compounds is paired with its reported pIC50.
endpoint-name: pIC50

- compound: "CCN(c1nc(OC[C@@]23CCCN2C[C@H](F)C3)nc2c(F)c(-c3ccc(F)c4sc(N)c(C#N)c34)c(C(F)(F)F)cc12)[C@H]1CCN(C(=O)N2CC3C(C2)C3(F)F)C1 (some centres unmarked) [Compound 657]"
  endpoint-name: "pIC50"
  reported-result: "> 7.00"
- compound: "CCN(c1nc(OC[C@@]23CCCN2C[C@H](F)C3)nc2c(F)c(-c3ccc(F)c4sc(N)c(C#N)c34)c(C(F)(F)F)cc12)[C@@H]1CCN(C(=O)[C@H](C)OC)[C@@H]1C (atropisomer, axis not shown) [Compound 789]"
  endpoint-name: "pIC50"
  reported-result: "6.00 to 7.00"
- compound: "CCN(c1nc(OC[C@@]23CCCN2C[C@H](F)C3)nc2c(F)c(-c3ccc(F)c4sc(N)c(C#N)c34)c(C(F)(F)F)cc12)[C@H]1CCN(C(=O)C2C[C@@H]2C)C1 (some centres unmarked) [Compound 604]"
  endpoint-name: "pIC50"
  reported-result: "> 7.00"
- compound: "CCN(CC)C(=O)c1nn2c(c1C)CN(c1nc(OCC34CCCN3CC(F)C4)nc3c(F)c(-c4ccc(F)c5sc(N)c(C#N)c45)c(C(F)(F)F)cc13)CC2 (centres unmarked) [Compound 740]"
  endpoint-name: "pIC50"
  reported-result: "6.00 to 7.00"
- compound: "CCN(c1nc(OC[C@@]23CCCN2C[C@H](F)C3)nc2c(F)c(-c3ccc(F)c4sc(N)c(C#N)c34)c(C(F)(F)F)cc12)[C@H]1CCN(C(=O)C2C[C@@H]2F)C1 (some centres unmarked) [Compound 692]"
  endpoint-name: "pIC50"
  reported-result: "> 7.00"

----------
In this section, each of the molecules is paired with its reported IC50.
- subject-of-test: Avi-KRAS G12R (1-169) GppNHp/RAF1 RBD-3xFLAG (52-151) (Homo sapiens, UniProt P01116, G12R)
- Construct: Avi-KRAS G12R (1-169)
- Sequence (P01116 1-169 isoform P01116-2 G12R): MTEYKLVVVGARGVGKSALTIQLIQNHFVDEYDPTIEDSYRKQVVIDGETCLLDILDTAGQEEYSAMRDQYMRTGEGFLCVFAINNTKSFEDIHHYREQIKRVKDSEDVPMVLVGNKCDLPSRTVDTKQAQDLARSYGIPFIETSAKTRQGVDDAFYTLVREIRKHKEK
- method: Raf1-KRAS G12R-GppNHP disruption HTRF assay (Biological Example 1)
- Assay type: binding
- test-parameters: KRAS G12R, GppNHp-loaded; Table 11

- molecule: "CCN(c1nc(OC[C@@]23CCCN2C[C@H](F)C3)nc2c(F)c(-c3ccc(F)c4sc(N)c(C#N)c34)c(C(F)(F)F)cc12)[C@@H]1CCN(C(C)=O)[C@@H]1C"
  subject-of-test: "Avi-KRAS G12R (1-169) GppNHp/RAF1 RBD-3xFLAG (52-151) (Homo sapiens, UniProt P01116, G12R)"
  IC50: "0.1 to 1 µM"
- molecule: "N#Cc1c(N)sc2c(F)ccc(-c3c(C(F)(F)F)cc4c(N5CCOCC5)nc(OC[C@@]56CCCN5C[C@H](F)C6)nc4c3F)c12 [Compound 90]"
  subject-of-test: "Avi-KRAS G12R (1-169) GppNHp/RAF1 RBD-3xFLAG (52-151) (Homo sapiens, UniProt P01116, G12R)"
  IC50: "0.1 to 1 µM"
- molecule: "CN(C[C@H](O)CO)c1nc(OC[C@@]23CCCN2C[C@H](F)C3)nc2c(F)c(-c3ccc(F)c4sc(N)c(C#N)c34)c(C(F)(F)F)cc12"
  subject-of-test: "Avi-KRAS G12R (1-169) GppNHp/RAF1 RBD-3xFLAG (52-151) (Homo sapiens, UniProt P01116, G12R)"
  IC50: "0.1 to 1 µM"
- molecule: "C[C@@H]1CN(c2nc(OC[C@@]34CCCN3C[C@H](F)C4)nc3c(F)c(-c4ccc(F)c5sc(N)c(C#N)c45)c(C(F)(F)F)cc23)C[C@H](C)O1"
  subject-of-test: "Avi-KRAS G12R (1-169) GppNHp/RAF1 RBD-3xFLAG (52-151) (Homo sapiens, UniProt P01116, G12R)"
  IC50: "1 to 10 µM"
- molecule: "CN(c1nc(OC[C@@]23CCCN2C[C@H](F)C3)nc2c(F)c(-c3ccc(F)c4scc(C#N)c34)c(C(F)(F)F)cc12)[C@@H]1CCN(C(=O)CO)C1"
  subject-of-test: "Avi-KRAS G12R (1-169) GppNHp/RAF1 RBD-3xFLAG (52-151) (Homo sapiens, UniProt P01116, G12R)"
  IC50: "> 10 µM"
- molecule: "CN(c1nc(OCC23CCCN2CCC3)nc2c(F)c(-c3ccc(F)c4sc(N)nc34)c(C(F)(F)F)cc12)C1CC(CO)C1 (stereo not drawn)"
  subject-of-test: "Avi-KRAS G12R (1-169) GppNHp/RAF1 RBD-3xFLAG (52-151) (Homo sapiens, UniProt P01116, G12R)"
  IC50: "> 10 µM"
- molecule: "N#Cc1c(N)sc2c(F)ccc(-c3c(C(F)(F)F)cc4c(N5CCCC(O)CC5)nc(OC[C@@]56CCCN5C[C@H](F)C6)nc4c3F)c12 (stereo partly drawn)"
  subject-of-test: "Avi-KRAS G12R (1-169) GppNHp/RAF1 RBD-3xFLAG (52-151) (Homo sapiens, UniProt P01116, G12R)"
  IC50: "< 0.1 µM"
- molecule: "CN(C[C@@H](O)CO)c1nc(OC[C@@]23CCCN2C[C@H](F)C3)nc2c(F)c(-c3ccc(F)c4sc(N)c(C#N)c34)c(C(F)(F)F)cc12"
  subject-of-test: "Avi-KRAS G12R (1-169) GppNHp/RAF1 RBD-3xFLAG (52-151) (Homo sapiens, UniProt P01116, G12R)"
  IC50: "0.1 to 1 µM"
- molecule: "C[C@@H]1CN(c2nc(OC[C@@]34CCCN3C[C@H](F)C4)nc3c(F)c(-c4ccc(F)c5sc(N)c(C#N)c45)c(C(F)(F)F)cc23)CCO1"
  subject-of-test: "Avi-KRAS G12R (1-169) GppNHp/RAF1 RBD-3xFLAG (52-151) (Homo sapiens, UniProt P01116, G12R)"
  IC50: "0.1 to 1 µM"
- molecule: "Nc1nc2c(-c3c(C(F)(F)F)cc4c(NC[C@@H]5CC[C@H](CO)C5)nc(OCC56CCCN5CCC6)nc4c3F)ccc(F)c2s1"
  subject-of-test: "Avi-KRAS G12R (1-169) GppNHp/RAF1 RBD-3xFLAG (52-151) (Homo sapiens, UniProt P01116, G12R)"
  IC50: "> 10 µM"
- molecule: "N#Cc1c(N)sc2c(F)ccc(-c3c(C(F)(F)F)cc4c(N5CC6CC(C5)O6)nc(OC[C@@]56CCCN5C[C@H](F)C6)nc4c3F)c12 [Compound 145]"
  subject-of-test: "Avi-KRAS G12R (1-169) GppNHp/RAF1 RBD-3xFLAG (52-151) (Homo sapiens, UniProt P01116, G12R)"
  IC50: "0.1 to 1 µM"
- molecule: "CO[C@@H]1C[C@@H](COc2nc(N(C)[C@H]3CCN(C(C)=O)[C@H]3C)c3cc(C(F)(F)F)c(-c4ccc(F)c5sc(N)c(C#N)c45)c(F)c3n2)N(C)C1"
  subject-of-test: "Avi-KRAS G12R (1-169) GppNHp/RAF1 RBD-3xFLAG (52-151) (Homo sapiens, UniProt P01116, G12R)"
  IC50: "> 10 µM"
